Catalogue of pEC50 values
Target: F508del-CFTR (Homo sapiens (Human), UniProt P13569, DEL508-508)
Sequence (P13569 other isoform, or with tags, fused parts or gaps del F508-F508): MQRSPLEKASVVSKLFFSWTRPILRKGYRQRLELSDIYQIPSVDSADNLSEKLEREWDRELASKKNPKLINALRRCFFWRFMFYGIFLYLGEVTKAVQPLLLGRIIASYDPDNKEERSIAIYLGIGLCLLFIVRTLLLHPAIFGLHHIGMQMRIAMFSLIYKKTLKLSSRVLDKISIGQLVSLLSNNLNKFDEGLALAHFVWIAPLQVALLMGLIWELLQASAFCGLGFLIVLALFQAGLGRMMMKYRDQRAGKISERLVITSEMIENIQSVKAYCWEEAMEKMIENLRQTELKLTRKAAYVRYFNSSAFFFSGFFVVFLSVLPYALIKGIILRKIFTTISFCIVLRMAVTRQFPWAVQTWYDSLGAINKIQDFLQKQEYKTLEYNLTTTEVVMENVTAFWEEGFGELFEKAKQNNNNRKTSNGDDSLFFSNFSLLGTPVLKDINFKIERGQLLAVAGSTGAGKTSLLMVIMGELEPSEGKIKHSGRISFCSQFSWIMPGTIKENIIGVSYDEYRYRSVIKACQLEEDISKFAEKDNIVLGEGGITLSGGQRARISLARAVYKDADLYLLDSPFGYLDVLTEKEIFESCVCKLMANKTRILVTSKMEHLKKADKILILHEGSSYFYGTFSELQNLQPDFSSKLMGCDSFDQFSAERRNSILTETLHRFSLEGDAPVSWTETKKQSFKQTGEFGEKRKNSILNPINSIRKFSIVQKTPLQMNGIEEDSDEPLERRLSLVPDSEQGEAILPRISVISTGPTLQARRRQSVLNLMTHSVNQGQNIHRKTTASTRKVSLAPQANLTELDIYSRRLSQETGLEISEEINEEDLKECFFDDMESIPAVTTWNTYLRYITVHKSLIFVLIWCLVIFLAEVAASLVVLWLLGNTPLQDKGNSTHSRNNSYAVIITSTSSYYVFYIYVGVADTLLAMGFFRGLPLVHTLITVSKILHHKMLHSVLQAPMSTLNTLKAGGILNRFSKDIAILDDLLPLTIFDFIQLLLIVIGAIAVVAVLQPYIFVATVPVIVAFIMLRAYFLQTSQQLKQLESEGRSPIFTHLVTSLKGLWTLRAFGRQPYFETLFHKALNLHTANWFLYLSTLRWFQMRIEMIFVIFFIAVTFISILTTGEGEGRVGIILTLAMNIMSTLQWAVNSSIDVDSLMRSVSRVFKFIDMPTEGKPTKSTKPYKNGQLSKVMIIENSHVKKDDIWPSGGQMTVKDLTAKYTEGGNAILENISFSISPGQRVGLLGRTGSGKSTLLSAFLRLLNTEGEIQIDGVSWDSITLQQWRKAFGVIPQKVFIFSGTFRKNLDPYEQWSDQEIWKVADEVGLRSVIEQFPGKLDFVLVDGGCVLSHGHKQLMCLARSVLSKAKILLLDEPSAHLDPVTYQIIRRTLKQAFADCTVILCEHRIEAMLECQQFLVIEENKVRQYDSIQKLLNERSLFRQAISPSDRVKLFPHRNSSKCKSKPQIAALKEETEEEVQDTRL
Assay: Membrane potential optical (fluorescent voltage sensing dye, FLIPR III) HTS assay for F508del-CFTR modulators
Assay type: cell-based
Conditions: F508del NIH 3T3 cells, assay 5A-A1; read-out: CFTRdF508 EC50
pEC50: −log10 of the molar value.
Endpoint label: pEC50

>>> print(df.to_string())
                                    compound                                 tested_on     obs_value
 0  COc1cc(C)ccc1S(=O)(=O)NC(=O)c1ccc(-n2ccc(OCC3(C(F)(F)F)CC3)n2)nc1N1C[C@@H](C)CC1(C)C  F508del-CFTR (Homo sapiens (Human), UniProt P13569, DEL508-508)        > 7.00
 1  C[C@@H]1CN(c2nc(-n3ccc(OCC4(C(F)(F)F)CCC4)n3)ccc2C(=O)NS(=O)(=O)c2ccccc2)C(C)(C)C1  F508del-CFTR (Homo sapiens (Human), UniProt P13569, DEL508-508)        > 7.00
 2  Cc1ccccc1S(=O)(=O)NC(=O)c1ccc(-n2ccc(OCC3C4(CC4)C34CC4)n2)nc1N1C[C@@H](C)CC1(C)C  F508del-CFTR (Homo sapiens (Human), UniProt P13569, DEL508-508)        > 7.00
 3  C[C@@H]1CN(c2nc(-n3ccc(O[C@@H]4C[C@@H]4C(F)(F)F)n3)ccc2C(=O)NS(=O)(=O)c2ccccc2)C(C)(C)C1 (racemic)  F508del-CFTR (Homo sapiens (Human), UniProt P13569, DEL508-508)  6.00 to 7.00
 4  C[C@@H]1CN(c2nc(-n3ccc(OCCC4(C(F)(F)F)CC4)n3)ccc2C(=O)NS(=O)(=O)c2cccc(O)c2)C(C)(C)C1  F508del-CFTR (Homo sapiens (Human), UniProt P13569, DEL508-508)        > 7.00
 5  COc1cc(S(=O)(=O)NC(=O)c2ccc(-n3ccc(OCCC4(C(F)(F)F)CC4)n3)nc2N2C[C@@H](C)CC2(C)C)ccc1O  F508del-CFTR (Homo sapiens (Human), UniProt P13569, DEL508-508)        > 7.00
 6  C[C@@H]1CN(c2nc(-n3ccc(O)n3)ccc2C(=O)NS(=O)(=O)c2ccccc2)C(C)(C)C1  F508del-CFTR (Homo sapiens (Human), UniProt P13569, DEL508-508)        < 6.00
 7  COc1ccccc1S(=O)(=O)NC(=O)c1ccc(-n2ccc(OCC3(C(F)(F)F)CC3)n2)nc1N1C[C@@H](C)CC1(C)C  F508del-CFTR (Homo sapiens (Human), UniProt P13569, DEL508-508)        > 7.00
 8  C[C@@H]1CN(c2nc(-n3ccc(OCCC4(C(F)(F)F)CC4)n3)ccc2C(=O)NS(=O)(=O)c2cccc(F)c2)C(C)(C)C1  F508del-CFTR (Homo sapiens (Human), UniProt P13569, DEL508-508)        > 7.00
 9  C[C@@H]1CN(c2nc(-n3ccc(OCC4(C(F)(F)F)CC4)n3)ccc2C(=O)NS(=O)(=O)c2ccc(O)cc2)C(C)(C)C1  F508del-CFTR (Homo sapiens (Human), UniProt P13569, DEL508-508)  6.00 to 7.00
10  C[C@@H]1CN(c2nc(-n3ccc(OCC4(C(F)(F)F)CCC4)n3)ccc2C(=O)NS(=O)(=O)c2cccc(F)c2)C(C)(C)C1  F508del-CFTR (Homo sapiens (Human), UniProt P13569, DEL508-508)        > 7.00
11  Cc1ccc(S(=O)(=O)NC(=O)c2ccc(-n3ccc(OCC4(C(F)(F)F)CC4)n3)nc2N2C[C@@H](C)CC2(C)C)cc1  F508del-CFTR (Homo sapiens (Human), UniProt P13569, DEL508-508)        > 7.00
12  C[C@@H]1CN(c2nc(-n3ccc(OCC4(C(F)(F)F)CC4)n3)ccc2C(=O)NS(=N)(=O)c2ccccc2)C(C)(C)C1 (stereo partly shown) [Compound 45]  F508del-CFTR (Homo sapiens (Human), UniProt P13569, DEL508-508)  6.00 to 7.00

====

Molecular target: human PXR (Homo sapiens (Human))
Sequence (O75469 whole entry): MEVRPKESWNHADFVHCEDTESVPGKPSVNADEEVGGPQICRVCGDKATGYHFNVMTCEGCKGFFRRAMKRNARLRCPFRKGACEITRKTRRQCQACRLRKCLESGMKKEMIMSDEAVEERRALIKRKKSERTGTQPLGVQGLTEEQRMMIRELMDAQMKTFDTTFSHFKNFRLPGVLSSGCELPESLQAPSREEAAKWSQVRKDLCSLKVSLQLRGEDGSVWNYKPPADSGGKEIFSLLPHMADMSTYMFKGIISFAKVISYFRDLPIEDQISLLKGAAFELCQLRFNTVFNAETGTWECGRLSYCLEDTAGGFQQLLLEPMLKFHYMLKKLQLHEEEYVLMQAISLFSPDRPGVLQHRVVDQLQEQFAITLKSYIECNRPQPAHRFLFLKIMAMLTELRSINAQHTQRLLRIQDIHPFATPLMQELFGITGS
Assay: PXR assay (PXR mediated CYP3A4 induction, DPX-2 cell line)
Type: cell-based
Conditions: DPX-2 cells, 48 hours, 0.1 to 60 μM
Endpoint label: PXR Max Induction (% of rifampicin)

                                   compound                         tested_on           obs_value
0  C[C@@H]1CN(c2nc(-n3ccc(OCC(C)(C)C)n3)ccc2C(=O)NS(=O)(=O)c2cccnc2N)C(C)(C)C1 [Comp. A, reference compound]  human PXR (Homo sapiens (Human))   2 % of rifampicin
1  COc1ccc(S(=O)(=O)NC(=O)c2ccc(-n3ccc(OCC4(C(F)(F)F)CC4)n3)nc2N2C[C@@H](C)CC2(C)C)c(OC)c1  human PXR (Homo sapiens (Human))   2 % of rifampicin
2  C[C@@H]1CN(c2nc(-n3ccc(OCC4CC4)n3)ccc2C(=O)NS(=O)(=O)c2cccnc2N)C(C)(C)C1 [Comp. D, reference compound]  human PXR (Homo sapiens (Human))  20 % of rifampicin

====

Assay: Rat IV and PO PK studies
Type: in vivo, male Sprague-Dawley rats
Conditions: male, Sprague-Dawley, plasma, 3 mg/kg, oral, read-out: Rat po % F
Output: class label from bioavailability. Mapping: low band = under 50%, middle band = from 50% up to 80%, high band = 80% and over

>>> df
                                   compound  answer_label
0  C[C@@H]1CN(c2nc(-n3ccc(OCC(C4CC4)C4CC4)n3)ccc2C(=O)NS(=O)(=O)c2ccccc2)C(C)(C)C1      low band
1  C[C@@H]1CN(c2nc(-n3ccc(OCC4(C(F)(F)F)CCC4)n3)ccc2C(=O)NS(=O)(=O)c2ccccc2)C(C)(C)C1      low band
2  Cc1ccc(S(=O)(=O)NC(=O)c2ccc(-n3ccc(OCC4(C(F)(F)F)CC4)n3)nc2N2C[C@@H](C)CC2(C)C)cc1     high band
3  C[C@@H]1CN(c2nc(-n3ccc(OCC4(C(F)(F)F)CC4)n3)ccc2C(=O)NS(=O)(=O)c2cccc(F)c2)C(C)(C)C1     high band
4  C[C@@H]1CN(c2nc(-n3ccc(OCC(C)(C)C)n3)ccc2C(=O)NS(=O)(=O)c2cccnc2N)C(C)(C)C1 [Comp. A, reference compound]      low band
5  C[C@@H]1CN(c2nc(-n3ccc(OCC4C(C)(C)C4(C)C)n3)ccc2C(=O)NS(=O)(=O)c2ccccc2)C(C)(C)C1      low band
6  Cc1ccccc1S(=O)(=O)NC(=O)c1ccc(-n2ccc(OCC3(C(F)(F)F)CC3)n2)nc1N1C[C@@H](C)CC1(C)C   middle band
7  COc1ccccc1S(=O)(=O)NC(=O)c1ccc(-n2ccc(OCC3(C(F)(F)F)CC3)n2)nc1N1C[C@@H](C)CC1(C)C     high band
8  C[C@@H]1CN(c2nc(-n3ccc(OCCC4(C(F)(F)F)CC4)n3)ccc2C(=O)NS(=O)(=O)c2ccccc2)C(C)(C)C1   middle band

====

Catalogue of EC50 values
Target: F508del-CFTR (Homo sapiens (Human), UniProt P13569, DEL508-508)
Assay: Membrane potential optical (fluorescent voltage sensing dye, FLIPR III) HTS assay for F508del-CFTR modulators
Format: cell-based
Conditions: Table 7, Compound 1 and metabolites; read-out: CFTRdF508 EC50
Endpoint label: EC50 (nM)

In [3]: df
Out[3]:
                                   compound  limit_qualifier  obs_value
0  C[C@@H]1CN(c2nc(-n3ccc(OCC(O)C4(C(F)(F)F)CC4)n3)ccc2C(=O)NS(=O)(=O)c2ccccc2)C(C)(C)C1 (some centres unmarked)                =        240
1  C[C@@H]1CN(c2nc(-n3ccc(OCCC4(C(F)(F)F)CC4)n3)ccc2C(=O)NS(=O)(=O)c2ccc(O)cc2)C(C)(C)C1                =         30
2  C[C@H]1CC(C)(C)N2c3nc(-n4ccc(OCCC5(C(F)(F)F)CC5)n4)ccc3C(=O)OC12 (some centres unmarked)                >      30000
3  C[C@@H]1CN(c2nc(-n3ccc(OCCC4(C(F)(F)F)CC4)n3)ccc2C(=O)NS(=O)(=O)c2ccccc2O)C(C)(C)C1                =         90
4  C[C@@H]1CN(c2nc(-n3ccc(OCCC4(C(F)(F)F)CC4)n3)ccc2C(=O)NS(=O)(=O)c2ccccc2)C(C)(C)C1                =         30
